I'd appreciate it if you could supply s/n ratio values for the items below.
Target: T1, PCSK9Δhelix (human, Chemically biotinylated in the phage ELISAs; the site is not given.)
T1 construct: construct M1-Q692 with engineered TEV site, cleaved by TEV; also called His-PCSK9Δhelix; open groove PCSK9Δhelix
T1 sequence (prodomain, as listed by the source mutant limits assumed, chain 1 of 2): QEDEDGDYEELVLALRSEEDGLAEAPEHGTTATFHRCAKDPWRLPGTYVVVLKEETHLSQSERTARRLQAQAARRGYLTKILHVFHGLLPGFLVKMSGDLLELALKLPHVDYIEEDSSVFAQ
T1 sequence (chain, as listed by the source mutant limits assumed, chain 2 of 2): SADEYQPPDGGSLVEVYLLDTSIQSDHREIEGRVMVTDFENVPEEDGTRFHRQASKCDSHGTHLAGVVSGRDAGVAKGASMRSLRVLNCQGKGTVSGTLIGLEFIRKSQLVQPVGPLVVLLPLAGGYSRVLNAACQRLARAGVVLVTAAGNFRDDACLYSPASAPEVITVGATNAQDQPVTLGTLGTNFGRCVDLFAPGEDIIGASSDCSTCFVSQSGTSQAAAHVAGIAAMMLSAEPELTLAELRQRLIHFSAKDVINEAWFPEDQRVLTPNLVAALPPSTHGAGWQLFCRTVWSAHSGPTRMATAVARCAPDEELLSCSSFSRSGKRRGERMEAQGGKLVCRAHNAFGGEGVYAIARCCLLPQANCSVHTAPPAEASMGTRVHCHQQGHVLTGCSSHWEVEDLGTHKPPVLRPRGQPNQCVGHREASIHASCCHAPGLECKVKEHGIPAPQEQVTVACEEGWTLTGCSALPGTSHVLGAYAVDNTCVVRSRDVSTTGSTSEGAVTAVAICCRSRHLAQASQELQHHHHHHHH
Assay: phage spot ELISA;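 note: phage clones bound to PCSK9 or PCSK9Δhelix by ELISA, noise being the same phage on NeutrAvidin, positive when signal above 0.4 and signal:noise above 2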
Respond with the number and no other words.

Quick one: s/n ratio for TAFTSWEEYLDWVGSGGEYLWNLKRLES [SEQ ID NO 320] ?
26

Tell me the measured s/n ratio of TAFTSWEEYLDWVGSGRGGYELNIPR [SEQ ID NO 326] , please.
18.8

State the recorded s/n ratio for this entry: TAFTSWEEYLDWVGSGNELWNINRLRSS [SEQ ID NO 317]
13.2

Fill in the blank: the reported s/n ratio of TAFTSWEEYLDWVGSGVPWNLARL [SEQ ID NO 314] is ____.
27.3
